The reported numbers originate from patent US9233978B2.

# RUN DESCRIPTION: Lysa solubility
# Format: physicochemical
# CONDITION LABEL: phosphate buffer, pH 6.5, aqueous buffer, thermodynamic from solid, 0.05 M phosphate buffer (pH 6.5)
MEASURED PROPERTY: solubility thermodynamic (µg/mL)
The response must be a number in µg/mL with no trailing unit.

COMPOUND	UNIT TAG	solubility thermodynamic
CCOC(=O)C1=C(CN2CCN3C(=O)N([C@@H]4CCCC4C(=O)O)C[C@@H]3C2)NC(c2nccs2)=N[C@H]1c1cccc(F)c1Cl (stereo in doubt) [Example 49]	µg/mL	312
COC(=O)C1=C(CN2CCN3C(=O)N(C4CC4)CC3(CC(=O)O)C2)NC(c2nccs2)=N[C@H]1c1ccc(F)cc1Cl (stereo partly drawn)	µg/mL	610

Let us examine a further case.
Recorded solubility thermodynamic (compound CCOC(=O)C1=C(CN2CCN3C(=O)N(CC4CC(C(=O)O)C4)C[C@@H]3C2)NC(c2nccs2)=N[C@H]1c1cccc(F)c1Cl (stereo partly drawn) ): 279
